assay: chemical genetic growth profiling, strain panel (AID 1159580);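 note: tested at 20 µM; growth read once vehicle control cultures reached saturation at 30 °C; 1 = growth at the plate median or of vehicle wells; lower values mean less growth of the strain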; conditions: S. cerevisiae deletion strains, growth OD, locus YFL029C, strain CAK1, stronger effect = lower value
Among all 5,500 compounds or so, about 2,000 (36%) were called active. Not shown: some 18% with an inconclusive outcome. This is one part of the list.
recordedEndpoint: normalized growth

{"molecule": "O=C1/C(=C/c2ccc(C(F)(F)F)cc2)COc2ccccc21", "testResult": "0.927 (inactive)"}
{"molecule": "COc1ccc(OC)c(-c2ccn[nH]2)c1OCc1ccccc1", "testResult": "0.995 (inactive)"}
{"molecule": "NNC(=O)c1csc(Cc2c(Cl)sc3ccc(Cl)cc23)n1", "testResult": "0.971 (inactive)"}
{"molecule": "S=C(NNc1ccccc1)Nc1cc(Cl)ccc1Cl", "testResult": "0.95 (inactive)"}
{"molecule": "O=C(CCn1c(=O)oc2ccccc21)Sc1ccc(C(F)(F)F)cc1", "testResult": "0.937 (inactive)"}
{"molecule": "Cc1onc(-c2ccccc2)c1C(=O)Sc1ccc(C(F)(F)F)cn1", "testResult": "0.949 (inactive)"}
{"molecule": "CNC(=O)n1nc(C)c(Cc2csc3ccc(Cl)cc23)c1C", "testResult": "0.993 (inactive)"}
{"molecule": "Oc1ccc(N=Nc2ccccn2)c(O)c1", "testResult": "0.0955 (active)"}
{"molecule": "O=C(Nc1ccc(Cl)cc1)O/N=C\\c1ccn(-c2ccccc2)n1", "testResult": "0.955 (inactive)"}
{"molecule": "O=C1/C(=C/c2cccs2)COc2ccccc21", "testResult": "0.897 (inactive)"}
{"molecule": "CC1C/C(=N/Nc2ccc(Br)cc2)c2cc(Cl)ccc2S1(=O)=O (configuration not stated)", "testResult": "0.992 (inactive)"}
{"molecule": "O=C(Nc1ccc(F)c(Cl)c1)c1ccccc1O", "testResult": "0.884 (inactive)"}
